test system: MAPKAPK2; design: species or system human, MV4-11 + K-562 + COLO205 + SK-N-BE2 + OVCAR-8; conditions: read-out: apparent Kd; compound concentrations:100 nM and 1000 nM (sheet 'Samples'); n = 1
quantity-name: potency estimated from few doses (µM)
Express it in µM; write the number only.

{"columns": ["smiles-structure", "measured-target", "observed-result"],
 "data": [
  ["CNc1ncc2cc(Oc3ccc(F)cc3F)c(=O)n(C)c2n1", "MAPKAPK2", 0.843],
  ["CC(C)N1CCC(n2cnc(-c3ccc(F)cc3)c2-c2ccnc(N)n2)CC1", "MAPKAPK2", 0.00702],
  ["CNc1nccc(-c2c(-c3ccc(F)cc3)ncn2C2CCN(C)CC2)n1", "MAPKAPK2", 0.049],
  ["NC(=O)Cc1ccccc1Oc1nccc(-c2c(-c3ccc(F)cc3)ncn2C2CCNCC2)n1", "MAPKAPK2", 0.503]
]}

Consider the additional molecule presented here.
Form field potency estimated from few doses for item Fc1ccc(-c2nc[nH]c2-c2ccncc2)cc1 on MAPKAPK2: 0.0838
